The measurements presented in this section are drawn from PubChem BioAssay AID1919004.

- Tested on: 883617-216-R-J1-PDC complex spheroids, growth, % test/control
- testProtocol: Anticancer human tumor 883617-216-R-J1-PDC patient-derived bladder carcinoma cell line growth inhibition [AhR]
- conditionsUsed: second compound 10 µM; first compound 0.3 µM; stronger effect = lower value
# key: entry, value: viability, T/C
The reply should be a number in %, with the unit left off.

The examples below pair each entry with its known result.
compound | viability, T/C, %
CCc1c2c(nc3ccc(O)cc13)-c1cc3c(c(=O)n1C2)COC(=O)[C@]3(O)CC + Cc1ccccc1N=Nc1ccc(NC(=O)c2ccnn2C)c(C)c1 | 44.9
O=C(C=Cn1cnc(-c2cc(C(F)(F)F)cc(C(F)(F)F)c2)n1)NNc1cnccn1 + Cc1ccccc1N=Nc1ccc(NC(=O)c2ccnn2C)c(C)c1 | 51

Would you kindly look at the next entry?
Prompt: Any idea what viability, T/C was measured for CCc1c2c(nc3ccc(O)cc13)-c1cc3c(c(=O)n1C2)COC(=O)[C@]3(O)CC + CC(CO)NC(=O)c1cc(-c2ccc(Cl)cc2)nn(-c2cnn(C)c2)c1=O ?
Response: 57.4

----------
- System: 883617-216-R-J1-PDC complex spheroids, growth, % test/control
- testProtocol: Anticancer human tumor 883617-216-R-J1-PDC cell line growth inhibition [AhR];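 note: exposure lasted 7 days after dosing on day 3 of spheroid growth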
- conditionsUsed: second compound 10 µM; first compound 1 µM; stronger effect = lower value
- From the text: Multicellular complex tumor spheroid response to aryl hydrocarbon receptor antagonists in combination with a variety of drugs and investigational agents in selected tumor cell lines […] Compounds. […] If the clinical Cmax for an agent had not been determined, the highest concentration tested was 10 microM (Table 1). […]
testReadout: viability, T/C

The examples below pair each entry with its known result.
compound | measurementTarget | experimentalResult
NS(=O)(=O)OCC1CC(n2ccc3c(NC4CCc5ccccc54)ncnc32)CC1O (stereo unspecified) + Cc1ccccc1N=Nc1ccc(NC(=O)c2ccnn2C)c(C)c1 | 883617-216-R-J1-PDC complex spheroids, growth, % test/control | 125%
CC1COCCN1c1cc(C2(S(C)(=N)=O)CC2)nc(-c2ccnc3[nH]ccc23)n1 (stereo unspecified) + Cc1cncc(-c2nc(NCCc3c[nH]c4ccccc34)c3ncn(C(C)C)c3n2)c1 | 883617-216-R-J1-PDC complex spheroids, growth, % test/control | 50.6%
CC(C)c1c(-c2ccccc2)nc2c(C#N)c[nH]n2c1=O + Cc1cncc(-c2nc(NCCc3c[nH]c4ccccc34)c3ncn(C(C)C)c3n2)c1 | 883617-216-R-J1-PDC complex spheroids, growth, % test/control | 41.7%
NS(=O)(=O)OCC1CC(n2ccc3c(NC4CCc5ccccc54)ncnc32)CC1O (stereo unspecified) + Cc1cncc(-c2nc(NCCc3c[nH]c4ccccc34)c3ncn(C(C)C)c3n2)c1 | 883617-216-R-J1-PDC complex spheroids, growth, % test/control | 6.98%
CC1(C)CCC(CN2CCN(c3ccc(C(=O)NS(=O)(=O)c4ccc(NCC5CCOCC5)c([N+](=O)[O-])c4)c(Oc4cnc5[nH]ccc5c4)c3)CC2)=C(c2ccc(Cl)cc2)C1 + Cc1ccccc1N=Nc1ccc(NC(=O)c2ccnn2C)c(C)c1 | 883617-216-R-J1-PDC complex spheroids, growth, % test/control | 77%
Nc1ccccc1NC(=O)c1ccc(CNC(=O)OCc2cccnc2)cc1 + Cc1cncc(-c2nc(NCCc3c[nH]c4ccccc34)c3ncn(C(C)C)c3n2)c1 | 883617-216-R-J1-PDC complex spheroids, growth, % test/control | 21.3%
CC1(C)CCC(CN2CCN(c3ccc(C(=O)NS(=O)(=O)c4ccc(NCC5CCOCC5)c([N+](=O)[O-])c4)c(Oc4cnc5[nH]ccc5c4)c3)CC2)=C(c2ccc(Cl)cc2)C1 + CC(CO)NC(=O)c1cc(-c2ccc(Cl)cc2)nn(-c2cnn(C)c2)c1=O | 883617-216-R-J1-PDC complex spheroids, growth, % test/control | 83.9%
COc1ccc([C@@H](O)c2cc(-c3ncnc4cc(N5CCOCC5)ccc34)c(F)cc2Cl)nn1 + Cc1cncc(-c2nc(NCCc3c[nH]c4ccccc34)c3ncn(C(C)C)c3n2)c1 | 883617-216-R-J1-PDC complex spheroids, growth, % test/control | 30.4%

Prompt: Any idea what viability, T/C was measured for CC1COCCN1c1cc(-c2ccnn2C)c2ccnc(-c3ccn[nH]3)c2n1 (stereo unspecified) + CC(CO)NC(=O)c1cc(-c2ccc(Cl)cc2)nn(-c2cnn(C)c2)c1=O ?
Response: 72%

Prompt: What about O=C(C=Cc1cccc(S(=O)(=O)Nc2ccccc2)c1)NO + CC(CO)NC(=O)c1cc(-c2ccc(Cl)cc2)nn(-c2cnn(C)c2)c1=O ?
Response: 54%

Prompt: What about O=C(c1cc(Cc2n[nH]c(=O)c3ccccc23)ccc1F)N1CCN(C(=O)C2CC2)CC1 + Cc1ccccc1N=Nc1ccc(NC(=O)c2ccnn2C)c(C)c1 ?
Response: 70.6%

----------
# key: entry, value: viability, T/C
- Test system: 883617-216-R-J1-PDC complex spheroids, growth, % test/control
- testProtocol: Anticancer human tumor 883617-216-R-J1-PDC cell line growth inhibition [AhR];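 note: exposure lasted 7 days after dosing on day 3 of spheroid growth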
- conditionsUsed: second compound 0.316 µM; first compound 10 µM; stronger effect = lower value
The reply should be a number in %, with the unit left off.

The examples below pair each entry with its known result.
compound | measurementTarget | resultUnit | viability, T/C
COc1ccc([C@@H](O)c2cc(-c3ncnc4cc(N5CCOCC5)ccc34)c(F)cc2Cl)nn1 + Cc1cncc(-c2nc(NCCc3c[nH]c4ccccc34)c3ncn(C(C)C)c3n2)c1 | 883617-216-R-J1-PDC complex spheroids, growth, % test/control | % | 35.3
COc1cccc2c1C(=O)c1c(O)c3c(c(O)c1C2=O)CC(O)(C(=O)CO)CC3OC1CC(N)C(O)C(C)O1 (stereo unspecified) + CC(CO)NC(=O)c1cc(-c2ccc(Cl)cc2)nn(-c2cnn(C)c2)c1=O | 883617-216-R-J1-PDC complex spheroids, growth, % test/control | % | 4.67
COc1cccc2c1C(=O)c1c(O)c3c(c(O)c1C2=O)CC(O)(C(=O)CO)CC3OC1CC(N)C(O)C(C)O1 (stereo unspecified) + Cc1ccccc1N=Nc1ccc(NC(=O)c2ccnn2C)c(C)c1 | 883617-216-R-J1-PDC complex spheroids, growth, % test/control | % | 0.15
COc1cc(C2c3cc4c(cc3C(OC3OC5COC(C)OC5C(O)C3O)C3COC(=O)C23)OCO4)cc(OC)c1O (stereo unspecified) + Cc1ccccc1N=Nc1ccc(NC(=O)c2ccnn2C)c(C)c1 | 883617-216-R-J1-PDC complex spheroids, growth, % test/control | % | 57.6
COc1cc(Nc2ncc3c(n2)-c2ccc(Cl)cc2C(c2c(F)cccc2OC)=NC3)ccc1C(=O)O + Cc1ccccc1N=Nc1ccc(NC(=O)c2ccnn2C)c(C)c1 | 883617-216-R-J1-PDC complex spheroids, growth, % test/control | % | 63.2

Prompt: Any idea what viability, T/C was measured for NS(=O)(=O)OCC1CC(n2ccc3c(NC4CCc5ccccc54)ncnc32)CC1O (stereo unspecified) + Cc1ccccc1N=Nc1ccc(NC(=O)c2ccnn2C)c(C)c1 ?
Response: 20.6

----------
- System: 883617-216-R-J1-PDC complex spheroids, growth, % test/control
- testProtocol: Anticancer human tumor 883617-216-R-J1-PDC cell line growth inhibition [AhR];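 note: exposure lasted 7 days after dosing on day 3 of spheroid growth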
- conditionsUsed: second compound 10 µM; first compound 0.949 µM; stronger effect = lower value
testReadout: viability, T/C

The examples below pair each entry with its known result.
compound | viability, T/C
CCN(c1cc(-c2ccc(CN3CCOCC3)cc2)cc(C(=O)NCc2c(C)cc(C)[nH]c2=O)c1C)C1CCOCC1 + Cc1ccccc1N=Nc1ccc(NC(=O)c2ccnn2C)c(C)c1 | 77.6%
O=C(C=Cn1cnc(-c2cc(C(F)(F)F)cc(C(F)(F)F)c2)n1)NNc1cnccn1 + CC(CO)NC(=O)c1cc(-c2ccc(Cl)cc2)nn(-c2cnn(C)c2)c1=O | 37.5%
CCN(c1cc(-c2ccc(CN3CCOCC3)cc2)cc(C(=O)NCc2c(C)cc(C)[nH]c2=O)c1C)C1CCOCC1 + Cc1cncc(-c2nc(NCCc3c[nH]c4ccccc34)c3ncn(C(C)C)c3n2)c1 | 27.3%
O=C(C=Cn1cnc(-c2cc(C(F)(F)F)cc(C(F)(F)F)c2)n1)NNc1cnccn1 + Cc1cncc(-c2nc(NCCc3c[nH]c4ccccc34)c3ncn(C(C)C)c3n2)c1 | 42.5%
O=C(C=Cn1cnc(-c2cc(C(F)(F)F)cc(C(F)(F)F)c2)n1)NNc1cnccn1 + Cc1ccccc1N=Nc1ccc(NC(=O)c2ccnn2C)c(C)c1 | 45.4%

Would you kindly look at the next entry?
Prompt: Any idea what viability, T/C was measured for CCN(c1cc(-c2ccc(CN3CCOCC3)cc2)cc(C(=O)NCc2c(C)cc(C)[nH]c2=O)c1C)C1CCOCC1 + CC(CO)NC(=O)c1cc(-c2ccc(Cl)cc2)nn(-c2cnn(C)c2)c1=O ?
Response: 98.5%
